Entries and their measured inhibition follow.
biological target: Tyrosine-protein phosphatase non-receptor type 1 (Rattus norvegicus); experiment: Inhibition of Protein-tyrosine phosphatase 1B activity in rat hepatic membrane at a concentration of 50 uM using pNPP as the substrate; type: cell membranes; conditions: Liver
Sequence (P20417 whole entry): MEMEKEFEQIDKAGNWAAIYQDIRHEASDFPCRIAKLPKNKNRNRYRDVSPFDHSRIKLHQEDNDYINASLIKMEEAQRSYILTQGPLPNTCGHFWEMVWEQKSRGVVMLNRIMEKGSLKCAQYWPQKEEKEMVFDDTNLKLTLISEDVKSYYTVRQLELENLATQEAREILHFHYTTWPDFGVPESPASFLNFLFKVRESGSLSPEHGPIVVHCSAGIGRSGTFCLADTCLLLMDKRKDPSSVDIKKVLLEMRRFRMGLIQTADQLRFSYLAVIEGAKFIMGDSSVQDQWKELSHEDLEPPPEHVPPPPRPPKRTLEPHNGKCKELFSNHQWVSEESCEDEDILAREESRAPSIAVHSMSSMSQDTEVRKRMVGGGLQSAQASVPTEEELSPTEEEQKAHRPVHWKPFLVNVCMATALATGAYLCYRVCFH
PROPERTY NAME: inhibition (%)

MOLECULE | PROPERTY NAME | OBSERVED RESULT
CC/C(=C\Cn1oc(=O)[nH]c1=O)c1cccc(OCc2nc(-c3ccc(C(F)(F)F)cc3)oc2C)c1 | inhibition | 57
C/C(=C\Cn1oc(=O)[nH]c1=O)c1cccc(OCc2nc(-c3ccccc3)oc2C)c1 (stereo in doubt; 49) | inhibition | 35
C/C(=C\Cn1oc(=O)[nH]c1=O)c1cccc(OCc2nc(-c3ccccc3)oc2C)c1 (stereo in doubt; 67) | inhibition | 25
CCCC/C(=C\Cn1oc(=O)[nH]c1=O)c1cccc(OCc2cc(Cl)cc(Cl)c2)c1 | inhibition | 61
CC/C(=C/Cn1oc(=O)[nH]c1=O)c1cccc(OCc2nc(-c3ccc(C(F)(F)F)cc3)oc2C)c1 | inhibition | 56
C/C(Cn1oc(=O)[nH]c1=O)=C(\C)c1cccc(OCc2nc(-c3ccc(C(F)(F)F)cc3)oc2C)c1 | inhibition | 54
C/C(=C\C=C\Cn1oc(=O)[nH]c1=O)c1cccc(OCc2nc(-c3ccccc3)oc2C)c1 | inhibition | 57
CCC/C(=C\Cn1oc(=O)[nH]c1=O)c1cccc(OCc2nc(-c3ccc(C(F)(F)F)cc3)oc2C)c1 | inhibition | 58

----------
molecular target: UniProt P20417; test: Inhibition of PTPase activity using recombinant r-PTP1B as the enzyme and IR-triphosphopeptide as substrate

MOLECULE | IC50 / µM
CCCC/C(=C\Cn1oc(=O)[nH]c1=O)c1cccc(OCc2cc(Cl)cc(Cl)c2)c1 | 0.8
C/C(=C\Cn1oc(=O)[nH]c1=O)c1ccccc1OCc1nc(-c2ccc(C(F)(F)F)cc2)oc1C | 43
C/C(=C\Cn1oc(=O)[nH]c1=O)c1cccc(OCc2noc(-c3ccccc3)n2)c1 | 3
C/C(=C\CN1CC(=O)NC1=O)c1cccc(OCc2nc(-c3ccc(C(F)(F)F)cc3)oc2C)c1 | 13
CCCC/C(=C\Cn1oc(=O)[nH]c1=O)c1cccc(Oc2cc(Cl)cc(Cl)c2)c1 | 1.6
C/C(=C\Cn1oc(=O)[nH]c1=O)c1cccc(COc2cc(C(F)(F)F)cc(C(F)(F)F)c2)c1 | 12
C/C(=C\Cn1oc(=O)[nH]c1=O)c1cccc(OCc2nc(-c3ccc(C(F)(F)F)cc3)oc2-c2ccccc2)c1 | 0.3
C/C(=C\Cn1oc(=O)[nH]c1=O)c1cccc(OCc2cc(C(F)(F)F)cc(C(F)(F)F)c2)c1 | 4.1
CCCC/C(=C\Cn1oc(=O)[nH]c1=O)c1cccc(Oc2ccc(OC)cc2)c1 | 10
CCCC/C(=C\Cn1oc(=O)[nH]c1=O)c1cccc(Oc2ccccc2)c1 | 2
C/C(=C\Cn1sc(=O)[nH]c1=O)c1cccc(OCc2nc(-c3ccc(C(F)(F)F)cc3)oc2C)c1 | 3.8
C/C(=C\Cn1oc(=O)[nH]c1=O)c1cccc(OCCc2nc(-c3ccccc3)oc2C)c1 | 24
C/C(=C\Cn1oc(=O)[nH]c1=O)c1ccc(OCCc2nc(-c3ccc(C(F)(F)F)cc3)oc2C)cc1 | 1.6
CCCCc1oc2ccccc2c1Cc1cccc(/C(C)=C/Cn2oc(=O)[nH]c2=O)c1 | 1.3
C/C(=C\CC1OC(=O)NC1=O)c1cccc(OCc2nc(-c3ccc(OC(F)(F)F)cc3)oc2C)c1 (centres undefined) | 46
CCCC/C(=C\Cn1oc(=O)[nH]c1=O)c1cccc(Oc2ccc(C)cc2)c1 | 13
C/C(=C\Cn1oc(=O)[nH]c1=O)c1cccc(OCc2ccc3c(Cl)cccc3c2)c1 | 16
C/C(=C\Cn1oc(=O)[nH]c1=O)c1cccc(OCc2coc(-c3ccc(C(F)(F)F)cc3)n2)c1 | 19
CCCCc1oc2ccccc2c1COc1cccc(/C(C)=C/Cn2oc(=O)[nH]c2=O)c1 | 2.7
